# Tested on: NCI-H292 lung cancer cells
# protocol.text: FDA drug screening, complete media vs cholesterol-free media without statin (TABLE 1)
# Type: cell-based, human
# assay.setup: NCI-H292 cells, complete media, FDA drug library screen
Where a name gives a salt, the structure may show the parent alone.
property.label: Complete

molecule="CC(C)Cc1ccc([C@H](C)C(=O)O)cc1 [(S)-(+)-Ibuprofen]" property_label=Complete measured_number=0.9982
molecule="Cc1nccn1CC1CCc2c(c3ccccc3n2C)C1=O (centres unmarked)" property_label=Complete measured_number=1.123
molecule=CS(=O)(=O)CCNCc1ccc(-c2ccc3ncnc(Nc4ccc(OCc5cccc(F)c5)c(Cl)c4)c3c2)o1 property_label=Complete measured_number=0.2753
molecule=CO[C@H]1C[C@@H]2CC[C@@H](C)[C@@](O)(O2)C(=O)C(=O)N2CCCC[C@H]2C(=O)O[C@H]([C@H](C)C[C@@H]2CC[C@@H](OC(=O)C(C)(CO)CO)[C@H](OC)C2)CC(=O)[C@H](C)/C=C(\C)[C@@H](O)[C@@H](OC)C(=O)[C@H](C)C[C@H](C)/C=C/C=C/C=C/1C property_label=Complete measured_number=0.3544
molecule="C[C@H]1[C@@H](O)O[C@@H]2O[C@@]3(C)CC[C@H]4[C@H](C)CC[C@@H]1[C@@]24OO3 [Dihydroartemisinin]" property_label=Complete measured_number=0.6489
molecule="CCCNCC(O)COc1ccccc1C(=O)CCc1ccccc1 (centres unmarked) [Propafenone (hydrochloride)]" property_label=Complete measured_number=1.086
molecule="CC1(C)S[C@@H]2[C@H](NC(=O)[C@H](C(=O)[O-])c3ccsc3)C(=O)N2[C@H]1C(=O)[O-].[Na+].[Na+] [Ticarcillin (disodium)]" property_label=Complete measured_number=1.43
molecule="CC[C@@]1(O)C(=O)OCc2c1cc1n(c2=O)Cc2c-1nc1ccccc1c2CCNC(C)C [Belotecan (hydrochloride)]" property_label=Complete measured_number=0.01027
molecule=O=C(CO)[C@@H](O)[C@H](O)[C@H](O)CO property_label=Complete measured_number=1.329
molecule="NCCCC(O)(P(=O)(O)O)P(=O)(O)O [Alendronate (sodium hydrate)]" property_label=Complete measured_number=0.2776
molecule=CO[C@H]1C(=O)[C@]2(C)[C@@H](OC)C[C@H]3OC[C@@]3(OC(C)=O)[C@H]2[C@H](OC(=O)c2ccccc2)[C@]2(O)C[C@H](OC(=O)[C@H](O)[C@@H](NC(=O)OC(C)(C)C)c3ccccc3)C(C)=C1C2(C)C property_label=Complete measured_number=0.198
molecule="O=C1c2c(O)ccc(O)c2C(=O)c2c(NCCNCCO)ccc(NCCNCCO)c21 [Mitoxantrone (dihydrochloride)]" property_label=Complete measured_number=−0.002012
molecule=O[C@H]1[C@H](O)[C@@H](O)[C@H](O)[C@@H](O)[C@H]1O property_label=Complete measured_number=1.54
molecule="CC(O)Cn1cnc2c1c(=O)n(C)c(=O)n2C (centres unmarked)" property_label=Complete measured_number=1.327

====

# Tested on: NCI-H292 lung cancer cells
# protocol.text: FDA drug screening, complete media vs cholesterol-free media with simvastatin (TABLE 2)
# Assay type: cell-based, human
# assay.setup: NCI-H292 cells, complete media; FDA drug library screen (TABLE 2)
Where a name gives a salt, the structure may show the parent alone.
property.label: Complete Media

molecule=CCOC(=O)c1ccc(C#Cc2ccc3c(c2)C(C)(C)CCS3)nc1 measured_number=0.8646
molecule=O=C(O)CCC(=O)Nc1ccc(S(=O)(=O)Nc2nccs2)cc1 measured_number=1.191
molecule=C[C@H](CCC(=O)O)[C@H]1CC[C@H]2[C@@H]3[C@H](O)C[C@@H]4C[C@H](O)CC[C@]4(C)[C@H]3CC[C@]12C measured_number=0.9061
molecule=C[C@H]1O[C@@H](n2cc(F)c(=O)[nH]c2=O)[C@H](O)[C@@H]1O measured_number=1.031
molecule="C#Cc1cccc(Nc2ncnc3cc4c(cc23)OCCOCCOCCO4)c1 [Icotinib (Hydrochloride)]" measured_number=0.5343
molecule="Nc1nc2[nH]cc(CCc3ccc(C(=O)N[C@@H](CCC(=O)O)C(=O)O)cc3)c2c(=O)[nH]1 [Pemetrexed (disodium hemipenta hydrate)]" measured_number=0.2746
molecule="CN(Cc1cnc2nc(N)nc(N)c2n1)c1ccc(C(=O)N[C@@H](CCC(=O)O)C(=O)O)cc1 [Methotrexate]" measured_number=0.1078
